Test: NCI Yeast Anticancer Drug Screen. Data for the bub3 strain (AID 167)
Details: S. cerevisiae bub3 mutant strain, at 5.0 µM (retest, dose inferred, filed as 0.5), active compounds read high
Compounds without any hit were thinned out: in the full panel of roughly 79,000, 15% have a hit.
So basically: growth inhibition at 20% or higher? That is fulfilled. Lower than 20%? That is not fulfilled.

{"columns": ["Compound", "Class assignment"],
 "data": [
  ["C#CCN1C(=O)N(CC#C)C(=O)C(CC#C)(C(CC=C)c2ccccc2)C1=O (stereo unspecified)", "not fulfilled"],
  ["CCCCCCCC[As](C)(=O)O", "not fulfilled"],
  ["NC[CH2][Sn]([c]1ccccc1)([CH]1CCCCC1)[CH]1CCCCC1", "fulfilled"],
  ["O=[N+]([O-])c1cc[n+]([O-])c2ccccc12", "fulfilled"],
  ["O=[N+]([O-])/C=C/c1cccc(F)c1", "not fulfilled"],
  ["N#C[S-].[La+3].c1cnc2c(c1)ccc1cccnc12.c1cnc2c(c1)ccc1cccnc12.c1cnc2c(c1)ccc1cccnc12", "fulfilled"],
  ["CCOc1ccc(CCNC)c2c1ccc1ccc(OC)c(O)c12", "not fulfilled"],
  ["COc1cc(C2c3[nH]c4ccccc4c3[C@@H](Nc3ccc(C#N)cc3)[C@H]3COC(=O)N23)cc(OC)c1O (stereo partly specified)", "not fulfilled"],
  ["O=[N+]([O-])/C=C/c1ccc(Cl)cc1", "fulfilled"],
  ["CC(C)NC1CC2CCCCC2CC1c1ccccc1 (stereo unspecified)", "not fulfilled"],
  ["CC(=O)[O-].CC(=O)[O-].O=C(N/N=C/c1cc(Cl)cc(Cl)c1[OH2+])c1ccncc1.[Zn+2]", "not fulfilled"]
]}
